Tested on: HOP-62 multicell spheroids with HUVEC/MSC, viability
ASSAY_EXPLANATION: Anticancer human tumor HOP-62 cell line growth inhibition [KRAS2];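 note: viability read after a week of compound exposure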
DETAILS: curve of first compound; second compound 1 µM
Kindly state IC50 for each of the entries shown.
Numeric answer only, unit nM assumed.

input: Tell me its IC50 given CCN1CCN(Cc2ccc(Nc3ncc(F)c(-c4cc(F)c5nc(C)n(C(C)C)c5c4)n3)nc2)CC1 + COc1cc2nc(C)nc(NC(C)c3cc(N)cc(C(F)(F)F)c3)c2cc1OC1CCOC1 as the entry.
output: 613

input: Tell me its IC50 given Cn1nccc1Nc1nccc(-c2cc3c(s2)C(C)(C)N(CCN2CCOCC2)C3=O)n1 + CNCc1ccccc1-c1csc(C(C)Nc2nc(C)nc3cc(OC)c(OC)cc23)c1 as the entry.
output: 646

input: Tell me its IC50 given O=C(c1cc(Cc2n[nH]c(=O)c3ccccc23)ccc1F)N1CCN(C(=O)C2CC2)CC1 + C=CC(=O)N1CCN(c2nc(=O)n(-c3c(C)ccnc3C(C)C)c3nc(-c4c(O)cccc4F)c(F)cc23)C(C)C1 as the entry.
output: 708

input: Tell me its IC50 given CCNC(=O)CC1N=C(c2ccc(Cl)cc2)c2cc(OC)ccc2-n2c(C)nnc21 (stereo unspecified) + CC1OCC2(CCN(c3cnc(Sc4ccnc(N)c4Cl)c(N)n3)CC2)C1N as the entry.
output: 136

input: Tell me its IC50 given Cn1nccc1Nc1nccc(-c2cc3c(s2)C(C)(C)N(CCN2CCOCC2)C3=O)n1 + CC1OCC2(CCN(c3cnc(Sc4ccnc(N)c4Cl)c(N)n3)CC2)C1N as the entry.
output: 97.8

input: Tell me its IC50 given CC(C)n1nc(-c2ccc3oc(N)nc3c2)c2c(N)ncnc21 + C=CC(=O)N1CCN(c2nc(=O)n(-c3c(C)ccnc3C(C)C)c3nc(-c4c(O)cccc4F)c(F)cc23)C(C)C1 as the entry.
output: 0.592

input: Tell me its IC50 given CC(=O)Nc1cccc(-n2c(=O)n(C3CC3)c(=O)c3c(Nc4ccc(I)cc4F)n(C)c(=O)c(C)c32)c1 + CNCc1ccccc1-c1csc(C(C)Nc2nc(C)nc3cc(OC)c(OC)cc23)c1 as the entry.
output: 2.32

input: Tell me its IC50 given CC(=O)Nc1cccc(-n2c(=O)n(C3CC3)c(=O)c3c(Nc4ccc(I)cc4F)n(C)c(=O)c(C)c32)c1 + COc1cc2nc(C)nc(NC(C)c3cc(N)cc(C(F)(F)F)c3)c2cc1OC1CCOC1 as the entry.
output: 2.01

input: Tell me its IC50 given CC(C)NCC(C(=O)N1CCN(c2ncnc3c2C(C)CC3O)CC1)c1ccc(Cl)cc1 (stereo unspecified) + CC1OCC2(CCN(c3cnc(Sc4ccnc(N)c4Cl)c(N)n3)CC2)C1N as the entry.
output: 52.1

====

Tested on: HOP-62 multicell spheroids with HUVEC/MSC, viability
ASSAY_EXPLANATION: Anticancer human tumor HOP-62 cell line growth inhibition [KRAS2]; active = viability on the fitted dose curve at most 10% of control; inactive = the rest;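 note: viability read after a week of compound exposure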
DETAILS: second compound 3.16 µM; first compound 0.0316 µM
Allowed answers: active, inactive

input: In this assay, the call recorded for CC(C)n1nc(-c2ccc3oc(N)nc3c2)c2c(N)ncnc21 + CNCc1ccccc1-c1csc(C(C)Nc2nc(C)nc3cc(OC)c(OC)cc23)c1 was what?
output: active

input: In this assay, the call recorded for Cn1nccc1Nc1nccc(-c2cc3c(s2)C(C)(C)N(CCN2CCOCC2)C3=O)n1 + CC1OCC2(CCN(c3cnc(Sc4ccnc(N)c4Cl)c(N)n3)CC2)C1N was what?
output: inactive

input: In this assay, the call recorded for CC1COCCN1c1cc(-c2ccnn2C)c2ccnc(-c3ccn[nH]3)c2n1 (stereo not given) + C=CC(=O)N1CCN(c2nc(=O)n(-c3c(C)ccnc3C(C)C)c3nc(-c4c(O)cccc4F)c(F)cc23)C(C)C1 was what?
output: inactive

input: In this assay, the call recorded for Cn1ncnc1[C@H]1c2n[nH]c(=O)c3cc(F)cc(c23)N[C@@H]1c1ccc(F)cc1 + COc1cc2nc(C)nc(NC(C)c3cc(N)cc(C(F)(F)F)c3)c2cc1OC1CCOC1 was what?
output: inactive

input: In this assay, the call recorded for COc1cc(Nc2ncc3c(n2)-c2ccc(Cl)cc2C(c2c(F)cccc2OC)=NC3)ccc1C(=O)O + CC1OCC2(CCN(c3cnc(Sc4ccnc(N)c4Cl)c(N)n3)CC2)C1N was what?
output: inactive

input: In this assay, the call recorded for CCNC(=O)CC1N=C(c2ccc(Cl)cc2)c2cc(OC)ccc2-n2c(C)nnc21 (stereo not given) + COc1cc2nc(C)nc(NC(C)c3cc(N)cc(C(F)(F)F)c3)c2cc1OC1CCOC1 was what?
output: inactive

input: In this assay, the call recorded for COC(=O)c1ccc2c(C(=Nc3ccc(N(C)C(=O)CN4CCN(C)CC4)cc3)c3ccccc3)c(O)[nH]c2c1 + C=CC(=O)N1CCN(c2nc(=O)n(-c3c(C)ccnc3C(C)C)c3nc(-c4c(O)cccc4F)c(F)cc23)C(C)C1 was what?
output: inactive

input: In this assay, the call recorded for CC1(C)CCC(CN2CCN(c3ccc(C(=O)NS(=O)(=O)c4ccc(NCC5CCOCC5)c([N+](=O)[O-])c4)c(Oc4cnc5[nH]ccc5c4)c3)CC2)=C(c2ccc(Cl)cc2)C1 + C=CC(=O)N1CCN(c2nc(=O)n(-c3c(C)ccnc3C(C)C)c3nc(-c4c(O)cccc4F)c(F)cc23)C(C)C1 was what?
output: inactive

input: In this assay, the call recorded for CCN1CCN(Cc2ccc(Nc3ncc(F)c(-c4cc(F)c5nc(C)n(C(C)C)c5c4)n3)nc2)CC1 + C=CC(=O)N1CCN(c2nc(OCC3CCCN3C)nc3c2CCN(c2cccc4cccc(C)c24)C3)CC1CC#N was what?
output: active

input: In this assay, the call recorded for CC(=O)Nc1cccc(-n2c(=O)n(C3CC3)c(=O)c3c(Nc4ccc(I)cc4F)n(C)c(=O)c(C)c32)c1 + COc1cc2nc(C)nc(NC(C)c3cc(N)cc(C(F)(F)F)c3)c2cc1OC1CCOC1 was what?
output: inactive
